β-Arrestin EC50 values for the binders below.
# system under test: chemokine receptor CXCR7 (UniProt P25106 1-362, limits assumed)
# Sequence (P25106 whole entry): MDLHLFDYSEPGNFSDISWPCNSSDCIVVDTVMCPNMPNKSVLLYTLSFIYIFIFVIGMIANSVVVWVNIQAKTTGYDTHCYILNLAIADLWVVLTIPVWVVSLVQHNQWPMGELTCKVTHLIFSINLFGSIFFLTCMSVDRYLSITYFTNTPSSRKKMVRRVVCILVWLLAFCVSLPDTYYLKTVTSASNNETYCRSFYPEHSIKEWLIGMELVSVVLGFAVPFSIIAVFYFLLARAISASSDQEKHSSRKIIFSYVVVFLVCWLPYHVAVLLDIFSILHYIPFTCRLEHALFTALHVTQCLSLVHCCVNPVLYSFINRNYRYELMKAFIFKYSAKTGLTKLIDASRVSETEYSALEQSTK
# assay text: cell-based or functional assay
Square brackets hold non-standard residues; d marks the D form. dPro(cis-4-NH2) = N[C@H]1CN[C@@H](C(=O)O)C1; 3Pal = N[C@@H](Cc1cccnc1)C(=O)O; Tic = O=C(O)[C@@H]1Cc2ccccc2CN1
Write the number in nM without appending the unit.

Solved entries:
binder	β-Arrestin EC50 [nM]
cyclo(W[dF]WH[dPro(cis-4-NH2)][Tic]) (SMILES N[C@@H]1C[C@@H]2C(=O)N3Cc4ccccc4C[C@H]3C(=O)N[C@@H](Cc3c[nH]c4ccccc34)C(=O)N[C@H](Cc3ccccc3)C(=O)N[C@@H](Cc3c[nH]c4ccccc34)C(=O)N[C@@H](Cc3c[nH]cn3)C(=O)N2C1) [cyclo(-Trp-^DPhe-Trp-His-^DPro((4R)NH2)-Tic-)]	20.4
cyclo([3Pal][dF]WR[dPro(cis-4-NH2)][Tic]) (SMILES N=C(N)NCCC[C@@H]1NC(=O)[C@H](Cc2c[nH]c3ccccc23)NC(=O)[C@@H](Cc2ccccc2)NC(=O)[C@H](Cc2cccnc2)NC(=O)[C@@H]2Cc3ccccc3CN2C(=O)[C@H]2C[C@@H](N)CN2C1=O) [cyclo(-3Pal-^DPhe-Trp-Arg-^DPro((4R)NH2)-Tic-)]	5.1

Let us examine a further case.
Consider the binder shown here: cyclo(A[dF]WR[dPro(cis-4-NH2)][Tic]) (SMILES C[C@@H]1NC(=O)[C@@H]2Cc3ccccc3CN2C(=O)[C@H]2C[C@@H](N)CN2C(=O)[C@H](CCCNC(=N)N)NC(=O)[C@H](Cc2c[nH]c3ccccc23)NC(=O)[C@@H](Cc2ccccc2)NC1=O) [cyclo(-Ala-^DPhe-Trp-Arg-^DPro((4R)NH2)-Tic-)] What is its recorded β-Arrestin EC50?
322
